Every entry's value here was drawn from ChEMBL document CHEMBL4765248.

# Tested on: A549
# Method: Antiproliferative activity against human A549 cells assessed as inhibition of cell growth measured after 72 hrs by MTT assay
# Format: functional, cell-based
# Details: A549, 72 h
Provide the recorded log10 of IC50 for the entries that follow.
// units: nM (pre-log); metric: IC50; scale: log10

**Query** Find the recorded log10 of IC50 belonging to COc1ccccc1-c1csc2cnc(Nc3ccc(C(=O)NC4CCNCC4)c(F)c3)nc12 and report it.
**Result** 2.43

**Query** Find the recorded log10 of IC50 belonging to COc1ccccc1-c1csc2cnc(Nc3ccc(NC(=O)CN)cc3)nc12 and report it.
**Result** 3.29

**Query** Find the recorded log10 of IC50 belonging to CNC(=O)c1ccccc1Nc1nc(Nc2ccc(N3CCOCC3)cc2OC)ncc1Cl and report it.
**Result** 3.06

**Query** Find the recorded log10 of IC50 belonging to COc1ccccc1-c1csc2cnc(Nc3cc(F)c(C(=O)NC4CCNCC4)cc3F)nc12 and report it.
**Result** 3.73

**Query** Find the recorded log10 of IC50 belonging to CCOP(=O)(Cc1ccc(Nc2ncc3scc(-c4ccccc4OC)c3n2)cc1)OCC and report it.
**Result** 2.98

**Query** Find the recorded log10 of IC50 belonging to COc1ccccc1-c1csc2cnc(Nc3ccc(C(=O)NC4CCNCC4)cc3C)nc12 and report it.
**Result** 3.53

**Query** Find the recorded log10 of IC50 belonging to COc1ccccc1-c1csc2cnc(Nc3ccc(C(=O)NC[C@@H]4CCCNC4)c(F)c3)nc12 and report it.
**Result** 3.70

**Query** Find the recorded log10 of IC50 belonging to COc1ccccc1-c1csc2cnc(Nc3ccc(C(=O)NC4CCOCC4)c(F)c3)nc12 and report it.
**Result** 3.76

====

# Method: Metabolic stability in rat liver microsomes assessed as parent compound remaining at 1 uM measured after 60 mins in presence of NADPH by LC-MS/MS analysis
# Format: ADME, Microsome
# Details: read-out: Stabilty
Measured Metric: remaining at 1 h, 1 µM (%)
Entry rule: numbers only, all in %.

**Query** Find the recorded remaining at 1 h, 1 µM belonging to COc1ccccc1-c1csc2cnc(Nc3ccc(C(=O)NC4CCNCC4)c(F)c3)nc12 and report it.
**Result** 72.4

====

# Tested On: Focal adhesion kinase 1 (Homo sapiens, UniProt Q05397)
# Sequence (Q05397 whole entry, the tested form may be a part): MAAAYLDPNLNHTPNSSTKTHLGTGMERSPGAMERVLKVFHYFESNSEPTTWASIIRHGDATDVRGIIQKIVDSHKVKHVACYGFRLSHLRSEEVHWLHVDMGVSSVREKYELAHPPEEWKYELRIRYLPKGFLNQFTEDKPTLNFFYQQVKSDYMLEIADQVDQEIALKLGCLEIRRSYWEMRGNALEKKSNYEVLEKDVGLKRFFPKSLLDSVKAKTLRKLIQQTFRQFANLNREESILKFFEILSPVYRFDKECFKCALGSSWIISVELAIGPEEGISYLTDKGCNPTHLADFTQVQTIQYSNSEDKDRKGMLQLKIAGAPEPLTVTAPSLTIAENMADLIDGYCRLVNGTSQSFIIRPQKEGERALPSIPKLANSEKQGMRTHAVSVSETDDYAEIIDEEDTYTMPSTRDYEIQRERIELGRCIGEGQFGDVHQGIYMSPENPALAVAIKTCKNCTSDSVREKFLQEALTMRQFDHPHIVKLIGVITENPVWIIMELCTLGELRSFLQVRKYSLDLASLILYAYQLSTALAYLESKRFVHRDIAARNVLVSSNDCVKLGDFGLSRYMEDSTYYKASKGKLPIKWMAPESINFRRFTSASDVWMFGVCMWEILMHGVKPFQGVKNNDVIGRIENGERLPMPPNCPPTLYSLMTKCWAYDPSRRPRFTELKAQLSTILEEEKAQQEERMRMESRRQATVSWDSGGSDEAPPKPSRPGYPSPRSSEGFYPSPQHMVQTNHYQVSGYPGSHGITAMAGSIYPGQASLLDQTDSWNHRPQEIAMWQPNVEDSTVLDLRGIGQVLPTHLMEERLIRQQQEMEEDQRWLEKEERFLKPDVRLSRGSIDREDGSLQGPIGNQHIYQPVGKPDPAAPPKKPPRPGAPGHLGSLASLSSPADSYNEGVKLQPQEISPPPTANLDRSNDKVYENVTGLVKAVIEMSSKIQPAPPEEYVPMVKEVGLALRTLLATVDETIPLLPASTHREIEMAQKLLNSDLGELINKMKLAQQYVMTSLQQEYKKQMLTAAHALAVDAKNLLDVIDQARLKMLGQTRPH
# Method: Inhibition of N-terminal GST-fused human truncated FAK (376 to 1052 residues) expressed in baculovirus expression system using tyrosine kinase peptide as substrate measured after 50 mins in presence of ATP by homogenous time resolved flourescence assay
pIC50: −log10 of the molar value.
Lab note: anything with pIC50 at or over 7 counts as true (1); the rest go in false (0).

**Query** Decide: pIC50 of COc1ccccc1-c1csc2cnc(Nc3ccc(NC(=O)C4CCNCC4)cc3)nc12 >= 7?
**Result** true (1)

**Query** Decide: pIC50 of COP(=O)(Cc1ccc(Nc2ncc3scc(-c4ccccc4C(C)=O)c3n2)cc1)OC >= 7?
**Result** false (0)

**Query** Decide: pIC50 of COc1ccccc1-c1csc2cnc(Nc3ccc(C(=O)NC4CCNCC4)cc3F)nc12 >= 7?
**Result** true (1)

**Query** Decide: pIC50 of CCOc1cc(C(=O)NC2CCNCC2)ccc1Nc1ncc2scc(-c3ccccc3OC)c2n1 >= 7?
**Result** false (0)

====

Provide the recorded IC50 for the entries that follow.
# Tested On: Focal adhesion kinase 1 (Homo sapiens)
# Method: Inhibition of N-terminal GST-fused human truncated FAK (376 to 1052 residues) expressed in baculovirus expression system using tyrosine kinase peptide as substrate measured after 50 mins in presence of ATP by homogenous time resolved flourescence assay
Entry rule: numbers only, all in nM.

**Query** Find the recorded IC50 belonging to COc1ccccc1-c1csc2cnc(Nc3ccc(C(=O)NC4CCNCC4)cc3C(F)(F)F)nc12 and report it.
**Result** 709

**Query** Find the recorded IC50 belonging to CCOP(=O)(OCC)C(O)c1ccc(Nc2ncc3scc(-c4ccccc4OC)c3n2)cc1 (centres undefined) and report it.
**Result** 321

**Query** Find the recorded IC50 belonging to COP(=O)(Cc1ccc(Nc2ncc3scc(-c4cccc(NC(C)=O)c4)c3n2)cc1)OC and report it.
**Result** 377

**Query** Find the recorded IC50 belonging to COc1cc(C(=O)NC2CCNCC2)ccc1Nc1ncc2scc(-c3ccccc3OC)c2n1 and report it.
**Result** 27.2

**Query** Find the recorded IC50 belonging to COc1ccccc1-c1csc2cnc(Nc3ccc(C(=O)NC4CCNCC4)cc3)nc12 and report it.
**Result** 38.8

**Query** Find the recorded IC50 belonging to CNC(=O)c1cccc(-c2csc3cnc(Nc4ccc(CP(=O)(OC)OC)cc4)nc23)c1 and report it.
**Result** 324

**Query** Find the recorded IC50 belonging to COc1ccccc1-c1csc2cnc(Nc3ccc(C(=O)N[C@@H]4CCNC4)c(F)c3)nc12 and report it.
**Result** 71.3

**Query** Find the recorded IC50 belonging to CCOP(=O)(Cc1ccc(Nc2ncc3scc(-c4ccccc4OC)c3n2)cc1)OCC and report it.
**Result** 157

**Query** Find the recorded IC50 belonging to COc1ccccc1-c1csc2cnc(Nc3ccc(C(=O)NC[C@@H]4CCCNC4)c(F)c3)nc12 and report it.
**Result** 111

**Query** Find the recorded IC50 belonging to COc1ccccc1-c1csc2cnc(Nc3ccc(NC(=O)[C@H]4CCCNC4)cc3)nc12 and report it.
**Result** 167

**Query** Find the recorded IC50 belonging to COP(=O)(Cc1ccc(Nc2ncc3scc(-c4cccc(S(C)(=O)=O)c4)c3n2)cc1)OC and report it.
**Result** 140

**Query** Find the recorded IC50 belonging to COc1ccccc1-c1csc2cnc(Nc3ccc(C(=O)NC4CCNCC4)c(F)c3)nc12 and report it.
**Result** 28.2

**Query** Find the recorded IC50 belonging to COc1ccccc1-c1csc2cnc(Nc3ccc(NC(=O)CN)cc3)nc12 and report it.
**Result** 144

**Query** Find the recorded IC50 belonging to COc1ccccc1-c1csc2cnc(Nc3ccc(CP(=O)(OC)OC)cc3)nc12 and report it.
**Result** 134

**Query** Find the recorded IC50 belonging to COc1ccccc1-c1csc2cnc(Nc3ccc(C(=O)NC4CCNCC4)cc3C)nc12 and report it.
**Result** 26.5

**Query** Find the recorded IC50 belonging to COc1ccccc1-c1csc2cnc(Nc3ccc(C(=O)NC[C@H]4CCCNC4)c(F)c3)nc12 and report it.
**Result** 149

**Query** Find the recorded IC50 belonging to COc1ccccc1-c1csc2cnc(Nc3ccc(C(=O)NCC4CCNCC4)c(F)c3)nc12 and report it.
**Result** 120

**Query** Find the recorded IC50 belonging to COc1ccc(-c2csc3cnc(Nc4ccc(CP(=O)(OC)OC)cc4)nc23)cc1 and report it.
**Result** 1060

**Query** Find the recorded IC50 belonging to COc1ccccc1-c1csc2cnc(Nc3ccc(C(=O)NC4CCN(C)CC4)c(F)c3)nc12 and report it.
**Result** 47.8

====

# System: MDA-MB-231
# Method: Antiproliferative activity against human MDA-MB-231 cells assessed as inhibition of cell growth measured after 72 hrs by MTT assay
# Format: functional, cell-based
# Details: MDA-MB-231, 72 h
Measured Metric: pIC50
Keep it numeric: pIC50 is minus log10 of the concentration in mol/L.

**Query** Find the recorded pIC50 belonging to COc1ccccc1-c1csc2cnc(Nc3ccc(C(=O)N[C@H]4CCNC4)c(F)c3)nc12 and report it.
**Result** 6.25

**Query** Find the recorded pIC50 belonging to COc1ccccc1-c1csc2cnc(Nc3ccc(C(=O)NCC4CCNCC4)c(F)c3)nc12 and report it.
**Result** 5.82

**Query** Find the recorded pIC50 belonging to CCOc1cc(C(=O)NC2CCNCC2)ccc1Nc1ncc2scc(-c3ccccc3OC)c2n1 and report it.
**Result** 5.36

**Query** Find the recorded pIC50 belonging to CCOP(=O)(Cc1ccc(Nc2ncc3scc(-c4ccccc4OC)c3n2)cc1)OCC and report it.
**Result** 5.31

**Query** Find the recorded pIC50 belonging to COc1ccccc1-c1csc2cnc(Nc3ccc(C(=O)NC4CCOCC4)c(F)c3)nc12 and report it.
**Result** 5.27

**Query** Find the recorded pIC50 belonging to COc1ccccc1-c1csc2cnc(Nc3ccc(NC(=O)C4CCNCC4)cc3)nc12 and report it.
**Result** 5.98

**Query** Find the recorded pIC50 belonging to COc1ccccc1-c1csc2cnc(Nc3ccc(CP(=O)(OC)OC)cc3)nc12 and report it.
**Result** 5.11

**Query** Find the recorded pIC50 belonging to COc1ccccc1-c1csc2cnc(Nc3ccc(C(=O)NC4CCNCC4)c(C)c3)nc12 and report it.
**Result** 6.62

**Query** Find the recorded pIC50 belonging to COc1ccccc1-c1csc2cnc(Nc3cc(F)c(C(=O)NC4CCNCC4)cc3F)nc12 and report it.
**Result** 5.59

**Query** Find the recorded pIC50 belonging to COc1cc(C(=O)NC2CCNCC2)ccc1Nc1ncc2scc(-c3ccccc3OC)c2n1 and report it.
**Result** 5.65

**Query** Find the recorded pIC50 belonging to COc1ccccc1-c1csc2cnc(Nc3ccc(NC(=O)[C@@H]4CCCNC4)cc3)nc12 and report it.
**Result** 6.39

**Query** Find the recorded pIC50 belonging to COc1ccccc1-c1csc2cnc(Nc3ccc(C(=O)NC4CCNCC4)cc3)nc12 and report it.
**Result** 6.96

**Query** Find the recorded pIC50 belonging to COc1ccccc1-c1csc2cnc(Nc3ccc(C(=O)NC[C@@H]4CCCNC4)c(F)c3)nc12 and report it.
**Result** 5.54

**Query** Find the recorded pIC50 belonging to COc1ccccc1-c1csc2cnc(Nc3ccc(NC(=O)CN)cc3)nc12 and report it.
**Result** 5.56

**Query** Find the recorded pIC50 belonging to COc1ccccc1-c1csc2cnc(Nc3ccc(C(=O)NC[C@H]4CCCNC4)c(F)c3)nc12 and report it.
**Result** 5.06

**Query** Find the recorded pIC50 belonging to COc1cc(C(=O)NC2CCNCC2)c(F)cc1Nc1ncc2scc(-c3ccccc3OC)c2n1 and report it.
**Result** 5.94

**Query** Find the recorded pIC50 belonging to COc1ccccc1-c1csc2cnc(Nc3ccc(C(=O)NC4CCNCC4)c(F)c3)nc12 and report it.
**Result** 6.72

**Query** Find the recorded pIC50 belonging to COc1ccccc1-c1csc2cnc(Nc3ccc(C(=O)N[C@@H]4CCNC4)c(F)c3)nc12 and report it.
**Result** 6.59

**Query** Find the recorded pIC50 belonging to COc1ccccc1-c1csc2cnc(Nc3ccc(C(=O)NC4CCNCC4)cc3C)nc12 and report it.
**Result** 5.49

**Query** Find the recorded pIC50 belonging to COc1ccccc1-c1csc2cnc(Nc3ccc(C(=O)NC4CCNCC4)cc3F)nc12 and report it.
**Result** 5.79

**Query** Find the recorded pIC50 belonging to CCOP(=O)(Cc1ccc(Nc2ncc3scc(-c4ccccc4OC)c3n2)cc1)N1CCOCC1 (stereo not drawn) and report it.
**Result** 5.08

**Query** Find the recorded pIC50 belonging to COc1ccccc1-c1csc2cnc(Nc3ccc(C(=O)NC4CCN(C)CC4)c(F)c3)nc12 and report it.
**Result** 6.46

**Query** Find the recorded pIC50 belonging to CNC(=O)c1ccc(Nc2ncc3scc(-c4ccccc4OC)c3n2)cc1 and report it.
**Result** 5.67

**Query** Find the recorded pIC50 belonging to CNC(=O)c1ccccc1Nc1nc(Nc2ccc(N3CCOCC3)cc2OC)ncc1Cl and report it.
**Result** 5.39

**Query** Find the recorded pIC50 belonging to CCOP(=O)(OCC)C(O)c1ccc(Nc2ncc3scc(-c4ccccc4OC)c3n2)cc1 (stereo not drawn) and report it.
**Result** 5.58

**Query** Find the recorded pIC50 belonging to COc1ccccc1-c1csc2cnc(Nc3ccc(NC(=O)[C@H]4CCCNC4)cc3)nc12 and report it.
**Result** 6.36

**Query** Find the recorded pIC50 belonging to CCOP(=O)(Cc1ccc(Nc2ncc3scc(-c4ccccc4OC)c3n2)cc1)NC (stereo not drawn) and report it.
**Result** 5.92

**Query** Find the recorded pIC50 belonging to COc1ccccc1-c1csc2cnc(Nc3ccc(C(=O)NC4CCNCC4)cc3C(F)(F)F)nc12 and report it.
**Result** 5.56
